These entries and their values trace back to PubChem BioAssay (NCI).

- System: KM12 colon
- Assay Method Text: NCI tumour cell line growth inhibition, 384-well format; in the data active = GI50 below about 0.43 µM; inactive = the rest
Classes used: 1.0 for active, 0.0 for inactive

CSc1nc(N)cc(Oc2ccc(-c3nc(Nc4cccc(C(F)(F)F)c4)n[nH]3)cc2)n1 :: 1.0
CCN1C(C)(C)CC(Oc2ccc(C(=O)Nc3ccc(NC(=O)Nc4cc(C(C)(C)C)on4)cc3)nc2)CC1(C)C :: 0.0
C[C@H](NC(=O)c1c(N)nn2cccnc12)c1cc2cccc(C#Cc3cnn(C)c3)c2c(=O)n1-c1ccccc1 :: 0.0
N[C@H]1C[C@@H]1c1ccc(-c2cccc(O)c2)cc1 :: 0.0
